- Test system: MDA-MB-435
- assay: NCI tumour cell line growth inhibition, 48 h
For each of the compounds below, state its TGI.
Give just the numeric value; µM need not be written.

Input line: Quick one: give measured TGI for COc1ccccc1/C=C\C(=O)C1COCN1 (stereo unspecified)
Output line: 26.4

Input line: Please report TGI for the following compound: Cn1cc(C2=C(c3cn(CCCN)c4ccccc34)C(=O)NC2=O)c2ccccc21
Output line: 6.62

Input line: Specify measured TGI for O=C(Nc1cc(Cl)ccc1O)c1cccc(Nc2ccnc(C(F)(F)F)c2)c1 .
Output line: 12.2

Input line: Quickly give me recorded TGI for CCNC1=C(NC(=O)c2ccccc2)C(=O)c2ccccc2C1=O
Output line: 19.4

Input line: # return recorded TGI for entry CC(NC1=CC(=O)c2cccnc2C1=O)C(O)c1ccccc1 (stereo unspecified)
Output line: 3.13

Input line: Identify measured TGI corresponding to C=CCNC1=C2C[C@@H](C)C[C@H](OC)[C@H](O)[C@@H](C)/C=C(\C)[C@H](OC(N)=O)[C@@H](OC)/C=C\C=C(/C)C(=O)NC(=CC1=O)C2=O
Output line: 17

Input line: Note down TGI recorded for COc1ccc(CNc2nc(NCc3ccc(OC)cc3)nc(NC3CCCC3)n2)cc1
Output line: 4.95

Input line: For the compound CCCCCCCCCCCCN=C(N)c1ccc(N2CCN(c3ccc(C(N)=NCCCCCCCCCCCC)cc3)CC2)cc1 , give its measured TGI value.
Output line: 19.4

Input line: Please give measured TGI of the following entry: CC(=O)/C(Br)=C/c1ccc(Br)o1
Output line: 23.2

Input line: Tell me its TGI given CN(C)Cc1ccc(NC(=O)c2cncc(C#Cc3cnc(N)c4ncccc34)c2)cc1F as the entry.
Output line: 3.14
